Experiment: chemical genetic growth profiling, strain panel (AID 1159580);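 also: tested at 20 µM; growth read once vehicle control cultures reached saturation at 30 °C; 1 = growth at the plate median or of vehicle wells; lower values mean less growth of the strain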
Conditions: S. cerevisiae deletion strains, growth OD, locus YKL160W, strain elf1
Out of some 5,500 compounds screened, about 2,000 (36%) were called active. About 18% were inconclusive and are not listed. Rule as the data show it: active = normalized growth mostly below about 0.91 (no sharp cut-off); inconclusive = no clear call, values can overlap the other calls; inactive = mostly above about 0.92. Some of the results follow.
Outcome field: choose from active, inactive

// below: answered compounds
compound	label value
COC(=O)/C(C)=C\CC12OC(C)(C)C3CC(C=C4C(=O)c5c(OC)c6c(c(CC=C(C)C)c5OC431)OC(C)(CCC=C(C)C)C=C6)C2=O (configuration not stated)	inactive
CC(=O)O[C@@H]1CC2C(C)(C)[C@H](O)CC[C@]2(C)C2CC[C@@]3(C)[C@H](c4ccoc4)OC(=O)C4OC43[C@@]21C (some centres not stated)	inactive
COC1C=CC23c4cc5c(cc4CN(CC2O)[C@@H]3C1)OCO5 (some centres not stated)	inactive

Q) How did this test come out for COc1c(C)c2c(c(O)c1C/C=C(\C)CCC(=O)O)C(=O)OC2 ?
A) active

Q) How did this test come out for CC(=O)Oc1c2c(c(CC=C(C)C)c3c1C(=O)C1=C[C@@H]4CC5C(C)(C)OC(C/C=C(\C)C(=O)O)(C4=O)[C@@]15O3)OC(C)(CCC=C(C)C)C=C2 (some centres not stated) ?
A) inactive

---

Test: chemical genetic growth profiling, strain panel (AID 1159580)
Conditions: S. cerevisiae deletion strains, growth OD, locus YER133W, strain GLC7
In all, about 5,500 compounds went through this assay and about 2,000 (36%) were called active. Roughly 18% stayed inconclusive and do not appear here. No stated cut-off is given here; in the data, active means normalized growth mostly below about 0.91 (no sharp cut-off); inconclusive means no clear call, values can overlap the other calls; inactive means mostly above about 0.92. The list shows a part of the results.
Outcome field: choose from active, inactive

compound	label value
O=S(=O)(NCc1ccc(C(F)(F)F)cc1)c1cccc(C(F)(F)F)c1	inactive
O=S(=O)(NCc1ccc(C(F)(F)F)cc1)c1cc(Br)c(Br)s1	inactive
Cc1ccc(NC(=S)C(C#N)C(=O)N2CCOCC2)c(C)c1 (stereo not given)	inactive
Cn1nccc1-c1cc(Cl)cc(Cl)c1O	active

Could you now consider this next compound?
Q) How did this test come out for N#Cc1cccc(CSc2nc3ccc(C(F)(F)F)cc3[nH]2)c1 ?
A) inactive

---

Experiment: chemical genetic growth profiling, strain panel (AID 1159580)
Conditions: S. cerevisiae deletion strains, growth OD, locus YPR163C, strain tif3
Hit rate of the full screen: of about 5,500 compounds, about 2,000 (36%) were called active. Inconclusive results (about 18%) are left out. Cut-off read from the data, not from the text of the source: active = normalized growth mostly below about 0.91 (no sharp cut-off); inconclusive = no clear call, values can overlap the other calls; inactive = mostly above about 0.92. The list shows a part of the results.
Outcome field: choose from active, inactive

compound	label value
Oc1c(Cl)cc(Cl)c(Cl)c1Cc1c(O)c(Cl)cc(Cl)c1Cl	active
CN[C@@H]1C(OC2[C@H](O[C@H]3[C@H](O)[C@@H](O)[C@H](N=C(N)N)[C@@H](O)[C@@H]3N=C(N)N)OC(C)[C@]2(O)CO)OC(CO)C(O)C1O (some centres undefined)	inactive

Q) How did this test come out for NCCCCCC(=O)O ?
A) inactive

Q) How did this test come out for COP(=S)(OC)Oc1ccc([N+](=O)[O-])cc1 ?
A) inactive

---

Experiment: chemical genetic growth profiling, strain panel (AID 1159580)
Conditions: S. cerevisiae deletion strains, growth OD, locus YJL154C, strain vps35, hits give low values
In all, about 5,500 compounds went through this assay and about 2,000 (36%) were called active. Roughly 18% stayed inconclusive and do not appear here. Some of the results follow.
measurement label: normalized growth

compound	result
NC(=O)NC1NC(=O)NC1=O (stereo not given)	1.01 (inactive)
CCN1C[C@@]2(COC)C3[C@@H](OC)[C@H]4[C@@H]1[C@]3(C(OC)C[C@H]2O)C1C[C@@]2(O)[C@H](OC(=O)c3ccccc3)C1[C@]4(OC(C)=O)[C@@H](O)[C@@H]2OC (stereo not given in full)	1 (inactive)
CC(=O)C1CCC2C3CCC4C[C@H](O)CCC4(C)C3C[C@H](O)C12C (stereo not given in full)	0.968 (inactive)
CC12CCC3C(=CCc4cc(O)ccc43)C1CCC2=O (stereo not given)	0.983 (inactive)
NCCCNCCSP(=O)(O)O	0.972 (inactive)

Q) Look up and report measured normalized growth for this entry: c1ccc2c(CC3=NCCN3)cccc2c1
A) 0.972 (inactive)

---

Test: chemical genetic growth profiling, strain panel (AID 1159580)
Conditions: S. cerevisiae deletion strains, growth OD, locus YML016C, strain PPZ1, hits give low values
About 2,000 (36%) of roughly 5,500 compounds were called active. Not shown: some 18% with an inconclusive outcome. The list shows a part of the results.
measurement label: normalized growth
Lab note: record just the number, no unit beside it.

As a guide, the following entries are already answered.
compound	normalized growth
CC1[C@H](C)OC(=O)CC(O)CC(O)CC(O)CCC(O)C(O)C[C@]2(O)CC(O)C(C(=O)O)C(CC(OC3O[C@H](C)[C@@H](O)[C@H](N)[C@@H]3O)/C=C/C=C/C=C/C=C/CC/C=C/C=C/[C@H](C)[C@H]1O)O2 (stereo partly drawn)	0.841
Cc1cccc(C)c1NC(=O)C1CCCCN1C (stereo not drawn)	1

Q) Look up and report measured normalized growth for this entry: CC1OC(O[C@H]2/C=C/C=C/C=C/C=C/C=C/C=C/C=C/[C@H](C)[C@@H](O)[C@@H](C)[C@H](C)OC(=O)CC(O)CC(O)CCC(O)C(O)CC(O)C[C@]3(O)C[C@H](O)C(C(=O)O)C(C2)O3)C(O)[C@H](N)C1O (stereo partly drawn)
A) 0.986

---

Assay: chemical genetic growth profiling, strain panel (AID 1159580);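 also: tested at 20 µM; growth read once vehicle control cultures reached saturation at 30 °C; 1 = growth at the plate median or of vehicle wells; lower values mean less growth of the strain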
Settings: S. cerevisiae deletion strains, growth OD, locus YAL026C, strain drs2, hits give low values
Hit rate of the full screen: of about 5,500 compounds, about 2,000 (36%) were called active. Not shown: some 18% with an inconclusive outcome. Some of the results follow.
Reported normalized growth is given for each of the following compounds.
Lab note: record just the number, no unit beside it.

As a guide, the following entries are already answered.
compound	numeric value
O=c1cccc2n1CC1CC2CN2CCCC[C@@H]12 (stereo not given in full)	0.983
O=C(O)C1CCCNC1 (stereo not given)	1.02

Now, please, on to the next compound.
Q) Look up and report measured normalized growth for this entry: Clc1ccc(COC(Cn2ccnc2)c2ccc(Cl)cc2Cl)cc1 (stereo not given)
A) 0.0618

---

Assay: chemical genetic growth profiling, strain panel (AID 1159580);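 also: tested at 20 µM; growth read once vehicle control cultures reached saturation at 30 °C; 1 = growth at the plate median or of vehicle wells; lower values mean less growth of the strain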
Settings: S. cerevisiae deletion strains, growth OD, locus YGR252W, strain gcn5
Among all 5,500 compounds or so, about 2,000 (36%) were called active. Inconclusive results (about 18%) are left out. No stated cut-off is given here; in the data, active means normalized growth mostly below about 0.91 (no sharp cut-off); inconclusive means no clear call, values can overlap the other calls; inactive means mostly above about 0.92. The list shows a part of the results.
Outcome field: choose from active, inactive

// below: answered molecules
molecule	label value
COc1ccc2oc(-c3ccccc3)c(OC)c(=O)c2c1	active
CC(=O)O[C@]1(C)CC[C@@]23CC1C(C)(C)[C@@H]2CC[C@H]3C	inactive
CCCCCCCCCCCCCC(=O)OC1C(C)C2(O)C(C=C(CO)CC3(O)C(=O)C(C)=CC32)C2C(C)(C)C12OC(C)=O (stereo unspecified)	inactive
COc1ccc2oc3ccccc3c(=O)c2c1	inactive
CC(=O)Oc1ccc2c(c1)CCC1C2CC[C@]2(C)C(=O)CCC12 (stereo partly specified)	inactive
C[C@]12CCC3c4ccc(O)cc4CCC3C1CCC2=O (stereo partly specified)	inactive
COc1ccc2c(=O)c(OC)c(-c3ccccc3)oc2c1	active
CC(=O)N[C@@H](CCC(=O)O)C(=O)O	inactive

Q) How did this test come out for CN(C)CCC(c1ccccc1)c1ccccn1 (stereo unspecified) ?
A) inactive

Q) How did this test come out for CC12CCC3C(=CCc4cc(O)ccc43)C1CCC2=O (stereo unspecified) ?
A) inactive

Q) How did this test come out for CC(=O)OC1CC(O)C(C)(C)C2CC(=O)C3(C)C(CCC4(C)C(c5ccoc5)OC(=O)C5OC543)C12C (stereo unspecified) ?
A) inactive

---

Assay: chemical genetic growth profiling, strain panel (AID 1159580);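 also: tested at 20 µM; growth read once vehicle control cultures reached saturation at 30 °C; 1 = growth at the plate median or of vehicle wells; lower values mean less growth of the strain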
Details: S. cerevisiae deletion strains, growth OD, locus YFR028C, strain CDC14, hits give low values
Among all 5,500 compounds or so, about 2,000 (36%) were called active. Roughly 18% stayed inconclusive and do not appear here. The list shows a part of the results.
Reported normalized growth is given for each of the following compounds.
Lab note: record just the number, no unit beside it.

compound	normalized growth
COc1ccc2c(c1)CCc1sc(NC(=O)c3ccco3)nc1-2	0.95
Cc1cccc(N=NC(C(=O)C(F)(F)F)=C(O)c2cccs2)c1	0.983
COc1ccc(Nc2nc(NC(=O)Nc3ccc(Cl)cc3)n[nH]2)cc1	0.988

Q) Look up and report measured normalized growth for this entry: CC1=CC(=O)N(c2ccc(F)c(Cl)c2)C1=O
A) 0.967

Q) Look up and report measured normalized growth for this entry: CC1CCC(C(C)C)C(N(Cc2ccccc2)C(=O)c2ccccc2)C1 (stereo unspecified)
A) 0.981

Q) Look up and report measured normalized growth for this entry: O=C(Oc1ccc2ccccc2c1C1SCCS1)c1ccc([N+](=O)[O-])o1
A) 0.946
